Tested on: Trypanosoma cruzi
PROCEDURE_DETAILS: Antitrypanosomal activity against Trypanosoma cruzi Y strain
OBSERVATION_TYPE: IC50 (µM)
Unit µM implied. Number only.

Query: Field request: IC50 | item: CC(=O)Nc1ccc(/C=N/NC(=O)c2nc(-c3ccccc3)no2)cc1
Result: 14.2

Query: Field request: IC50 | item: O=C(N/N=C/c1ccc(O)cc1)c1nc(-c2ccc([N+](=O)[O-])cc2)no1
Result: 25.2

Query: Field request: IC50 | item: O=C(N/N=C/c1ccc(O)cc1)c1nc(-c2ccc(O)cc2)no1
Result: 127

====

PROCEDURE_DETAILS: Cytotoxicity against BALB/c mouse splenocyte assessed as [3H]thymidine incorporation by beta-counting
Format: cell-based
EXPERIMENTAL_SETUP: splenocytes, read-out: MNCC
OBSERVATION_TYPE: MNTC (µM)
Unit µM implied. Number only.

Query: Field request: MNTC | item: CC(=O)Nc1ccc(/C=N/NC(=O)c2nc(-c3ccc(C)cc3)no2)cc1
Result: 30

Query: Field request: MNTC | item: O=C(N/N=C/c1ccc(O)cc1)c1nc(-c2ccc(Br)cc2)no1
Result: 97

Query: Field request: MNTC | item: COc1ccc(-c2noc(C(=O)N/N=C/c3ccc(O)cc3)n2)cc1
Result: 85

Query: Field request: MNTC | item: CC(=O)Nc1ccc(/C=N/NC(=O)c2nc(-c3ccccc3)no2)cc1
Result: 95
